- experimentalSystem: T1, 4H446-AA
- T1 chain: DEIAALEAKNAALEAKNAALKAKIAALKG
- methodDescription: two-hybrid library CCmax;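 note: natural log of median RNA to DNA barcode read ratio; higher means stronger binding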
- conditionContext: mean of both orientations
observationType: interaction score

These recorded examples may help you get a feel for the data.
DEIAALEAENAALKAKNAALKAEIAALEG [4H249-AA]
-1.26
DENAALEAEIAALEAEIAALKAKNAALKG [4H1040-AA]
-1.4
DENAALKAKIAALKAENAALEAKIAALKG [4H1878-AA]
-1.08
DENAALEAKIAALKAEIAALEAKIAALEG [4H1349-AA]
-1.37
DKNAALEAKIAALKAKNAALKAEIAALEG [4H3449-AA]
-1.41

[I] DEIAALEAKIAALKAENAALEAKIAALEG [4H341-AA]
[II] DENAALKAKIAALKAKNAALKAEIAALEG [4H1913-AA]
[III] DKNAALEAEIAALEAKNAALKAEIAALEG [4H3129-AA]
Please list these in order of increasing interaction score. Thank you! Would you mind listing the labels in the order requested?
III, II, I

Where do the numbers come from? From paper PMC10397247.
